Origin of values: ChEMBL document CHEMBL5230170

System: MCF7
Test: Cytotoxicity against human MCF7 cells assessed as reduction in cell growth at 1 uM incubated for 48 hrs by BrdU cell proliferation assay
Assay type: functional, cell-based
Calls of active or inactive are those of the source. The calls are words filed in the database; no cut-off is given here.
reported-metric: Activity

compound	experimental-target	reported-metric	result
COc1ccc2cc(C(O)(c3ccc(Cl)cc3)c3cccnc3)oc2c1 (centres undefined)	MCF7	Activity	inactive
CC#CCOc1ccc2cc(C(O)(c3ccc(Br)cc3)c3cccnc3)oc2c1 (centres undefined)	MCF7	Activity	inactive
CC#CCOc1ccc2cc(C(O)(c3ccc(Cl)cc3)c3cccnc3)oc2c1 (centres undefined)	MCF7	Activity	inactive
CCC#CCOc1ccc2cc(C(O)(c3ccc(Br)cc3)c3cccnc3)oc2c1 (centres undefined)	MCF7	Activity	inactive
COc1cccc2c1C(=O)c1c(O)c3c(c(O)c1C2=O)C[C@@](O)(C(=O)CO)C[C@@H]3O[C@H]1C[C@H](N)[C@H](O)[C@H](C)O1 [DOXORUBICIN]	MCF7	Activity	inactive

Qu. # Activity lookup, item COc1ccc2cc(C(O)(c3ccc(Br)cc3)c3cccnc3)oc2c1 (centres undefined)
Ans. inactive

Qu. # Activity lookup, item COc1ccc2cc(C(O)(c3cccnc3)c3ccc(Cl)cc3Cl)oc2c1 (centres undefined)
Ans. inactive

Qu. # Activity lookup, item COc1ccc2cc(C(O)(c3ccc(F)cc3)c3cccnc3)oc2c1 (centres undefined)
Ans. inactive

Qu. # Activity lookup, item CCC#CCOc1ccc2cc(C(O)(c3ccc(Cl)cc3)c3cccnc3)oc2c1 (centres undefined)
Ans. inactive
